biological target: Vascular endothelial growth factor receptor 2 (Homo sapiens, UniProt P35968)
Sequence (P35968 whole entry): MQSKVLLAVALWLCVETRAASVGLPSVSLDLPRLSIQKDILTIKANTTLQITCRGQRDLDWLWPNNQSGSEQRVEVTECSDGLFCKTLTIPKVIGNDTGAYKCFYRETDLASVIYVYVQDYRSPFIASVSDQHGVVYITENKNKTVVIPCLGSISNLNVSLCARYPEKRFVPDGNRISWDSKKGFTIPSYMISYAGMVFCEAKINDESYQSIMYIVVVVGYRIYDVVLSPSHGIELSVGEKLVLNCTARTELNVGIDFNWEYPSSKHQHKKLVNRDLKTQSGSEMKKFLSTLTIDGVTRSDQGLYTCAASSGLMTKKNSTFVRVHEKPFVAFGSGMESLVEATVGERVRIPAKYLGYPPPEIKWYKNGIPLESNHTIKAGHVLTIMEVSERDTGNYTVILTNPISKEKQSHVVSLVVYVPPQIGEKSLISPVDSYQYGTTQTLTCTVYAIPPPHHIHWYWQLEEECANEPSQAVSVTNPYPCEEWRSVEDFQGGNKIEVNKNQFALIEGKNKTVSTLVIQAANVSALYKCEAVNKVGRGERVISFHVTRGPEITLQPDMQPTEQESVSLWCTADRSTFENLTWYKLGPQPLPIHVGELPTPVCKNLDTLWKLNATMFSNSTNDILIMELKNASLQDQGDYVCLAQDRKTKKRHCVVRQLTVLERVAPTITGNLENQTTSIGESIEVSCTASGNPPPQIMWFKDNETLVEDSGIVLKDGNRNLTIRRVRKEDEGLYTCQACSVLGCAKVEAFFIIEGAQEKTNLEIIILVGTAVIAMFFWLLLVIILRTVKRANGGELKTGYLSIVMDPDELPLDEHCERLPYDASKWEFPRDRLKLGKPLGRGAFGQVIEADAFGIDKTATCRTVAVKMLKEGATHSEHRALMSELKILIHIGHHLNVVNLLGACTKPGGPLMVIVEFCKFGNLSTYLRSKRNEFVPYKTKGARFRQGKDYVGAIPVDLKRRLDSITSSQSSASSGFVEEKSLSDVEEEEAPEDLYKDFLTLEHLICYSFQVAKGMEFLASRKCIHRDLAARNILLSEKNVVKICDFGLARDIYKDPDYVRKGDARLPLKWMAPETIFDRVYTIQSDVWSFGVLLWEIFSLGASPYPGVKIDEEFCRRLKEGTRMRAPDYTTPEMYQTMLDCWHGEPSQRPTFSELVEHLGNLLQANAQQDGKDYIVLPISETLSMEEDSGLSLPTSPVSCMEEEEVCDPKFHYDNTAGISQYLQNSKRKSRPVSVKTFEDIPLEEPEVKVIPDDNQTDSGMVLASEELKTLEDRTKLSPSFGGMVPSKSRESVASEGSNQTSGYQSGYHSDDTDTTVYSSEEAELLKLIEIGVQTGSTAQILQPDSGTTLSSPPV
pIC50: −log10 of the molar value.
measure-name: pIC50

Q) Record C=c1nns/c1=c1\[nH][nH]c(=O)c1=Cc1c[nH]c2ccc(Cl)cc12 : what is its pIC50 with Vascular endothelial growth factor receptor 2 (Homo sapiens, UniProt P35968)?
A) < 6.52
